# targetSystem: UniProt P46059
# Sequence (P46059 whole entry): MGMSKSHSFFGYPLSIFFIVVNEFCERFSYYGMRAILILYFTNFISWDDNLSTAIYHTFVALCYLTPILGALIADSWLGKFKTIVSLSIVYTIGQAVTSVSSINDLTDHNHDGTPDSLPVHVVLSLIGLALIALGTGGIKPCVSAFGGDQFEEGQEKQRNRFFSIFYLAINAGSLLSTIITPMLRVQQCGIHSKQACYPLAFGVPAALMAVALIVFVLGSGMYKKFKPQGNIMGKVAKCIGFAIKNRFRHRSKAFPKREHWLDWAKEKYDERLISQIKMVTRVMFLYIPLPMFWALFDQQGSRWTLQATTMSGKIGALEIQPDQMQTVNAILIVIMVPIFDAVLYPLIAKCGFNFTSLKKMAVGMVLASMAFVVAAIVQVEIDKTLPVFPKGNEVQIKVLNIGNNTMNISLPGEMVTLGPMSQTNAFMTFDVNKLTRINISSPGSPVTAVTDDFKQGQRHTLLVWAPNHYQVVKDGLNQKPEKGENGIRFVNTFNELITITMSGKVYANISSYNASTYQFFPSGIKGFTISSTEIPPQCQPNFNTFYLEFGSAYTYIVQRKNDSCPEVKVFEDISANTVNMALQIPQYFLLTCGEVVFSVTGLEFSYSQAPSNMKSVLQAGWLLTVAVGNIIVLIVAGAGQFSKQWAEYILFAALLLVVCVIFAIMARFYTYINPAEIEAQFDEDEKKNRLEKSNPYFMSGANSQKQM
# assaySummary: Displacement of [14C]Gly-Sar from human PEPT1 in Caco-2 cells
# Assay type: cell-based
Residues, ends and D or L forms follow the SMILES beside them.
endpointLabel: Ki (µM)

I. C[C@H](NC(=O)[C@H](Cc1ccccc1)NC(=O)c1ccccc1)C(=O)O
II. CC(C)C[C@H](N)C(=O)N[C@@H](C)C(=O)N[C@@H](CCCNC(=N)N)C(=O)O (H-Leu-Ala-Arg-OH)
q: Returns: the label, I or II , whose recorded Ki is the lower number. Return value: the label identifying the chosen record.
a: I
